System: tumour cells (A20 5E6 cells)
TEST_SUMMARY: Inhibitory effect on tumour cell proliferation (CCK8)
Type: cell-based
MEASUREMENT_SETUP: CCK8 absorbance, read-out: Inhibitory effect of the compound on cell proliferation IC50
Procedure: This experiment was to determine the effect of the compound on cell proliferation. To determine the inhibitory effect of the compound on the proliferation of tumour cells, tumour cells (A20 5E6 cells) were cultured to a certain amount and seeded into 96-well plates. […] The absorbance value was measured after the addition of CCK8 and 2 h incubation to determine the inhibitory effect of the compound on cell proliferation. The IC50 value of the compound was obtained by data fitted with Graphpad.
# IC50 per record follows

{"columns": ["COMPOUND", "IC50 (nM)"],
 "data": [
  ["C[C@H]1CN(C2COC2)CCN1c1ccc(Nc2cc(-c3ccnc(N4CCn5c6c(c(Cl)c5C4=O)CC(C)(C)C6)c3CO)cn(C)c2=O)nc1 [Example H02]", 23],
  ["C[C@H]1CN(C2COC2)CCN1c1ccc(Nc2cc(-c3ccc(C#N)c(N4CCn5c(cc6c5CC(C)(C)C6)C4=O)c3CO)cn(C)c2=O)nc1 [Example H06]", 31],
  ["C[C@H]1CN(C2COC2)CCN1c1ccc(Nc2cc(-c3ccnc(N4CCn5c6c(c(F)c5C4=O)CC(C)(C)C6)c3CO)cn(C)c2=O)nc1 [Example H01]", 24],
  ["Cn1cc(-c2ccnc(N3CCn4c5c(c(F)c4C3=O)CC(C)(C)C5)c2CO)cc(Nc2ccc(N3CCC4(CC3)COC4)cn2)c1=O [Example H11]", 13],
  ["Cc1c2c(n3c1C(=O)N(c1nccc(-c4cc(Nc5ccc(N6CCN(C7COC7)C[C@@H]6C)cn5)c(=O)n(C)c4)c1CO)CC3)CC(C)(C)C2 [Example H03]", 61]
]}
